Quick list: EC50 per entry.
Molecular target: ZIKV E Domain III (ZEDIII), polyhistidine-AviTag, produced in HEK-293-6E cells
Assay: ELISA
Unit µg/mL implied. Number only.

• Z031 (BRA112_46) (antibody, V domains shown) VH: EVQLLESGGGLVQPGGSLRLSCVASGFTFGSYGMAWVRQAPGKGLEWISSISSIDPSTYYADSVKGRFTVSRDNSENTLYLHMSSLKVEDTAVYFCAKDRLNGGFGELFASWGQGTLVTVSS VL: DIQMTQSPSTLSASVGDSVTITCRASQSISSWLAWYQQKPGKAPKFLIHKASSLESGIPSRFSGSGSGTEFTLTINNLQPDDFATYYCQHYHSYPWTFGQGTKVEIK = 0.0341
• Z038 (BRA12_2) (antibody, V domains shown) VH: EVQLLESGGGLVQPGGSLRLSCEASGFTFSNYAMNWVRQAPGKGLEWVSTLGATDNSGDSTYYVESAKGRFTISRDNSKNTLYLQMNSLRVEDTAVYFCAKDRTGNIGAGTGYFDKWGQGTLVTVSS VL: DIQMTQSPSTLSASVGDRVTITCRASHRISGWLAWYQQKPGKAPKLLIYQASGLESGVPSRFSGSGYGTEFTLTISSLQADDFATYYCQQYNNYPWTFGQGTKVEIK = 0.0581

Please examine the following record next.
Q. Check the records and state EC50 for Z018 (antibody, V domains shown) VH: QVQLVQSGPGVKKPGASVKVSCKASGYIFSDYYILWVRQAPGQGLEYMGWMNPISGFTHYAQNFQGRVTMTRDTSISTAYMELTRLASDDTAVYYCARGGRINSPLGFDPWGQGTLVTVSS VL: EIVLTQSPATLSLSPGERATLSCRASQSISTFSLAWYQQKFGQAPRLLIYGASSRATGIPDRFSGSGSGTDFTLTISRLEPEDFAVYYCQQYVSSPLTFGGGTKVEIK
A. 0.0742
